assay: In vivo pharmacokinetic test in rats; design: species or system SD Rats; details: rat, in vivo; male rats, oral, single dose 30 mg/kg, plasma
quantity.measured: Cmax (ng/mL)
// note: answer is a bare numeric in ng/mL

Problem: Give the measured Cmax of CC1(O)COCCN(c2nc(OCC34CCCN3C(c3cc(F)c(F)c(F)c3)CC4)nc3c(F)c(-c4cccc5sc(N)c(C#N)c45)c(Br)cc23)C1 (single isomer, unassigned) .
Result: 1190

###

Entries and their pIC50
test system: KRAS G12C-mediated ERK phosphorylation; experiment: Inhibition of KRAS G12C-mediated ERK phosphorylation in NCI H358 cells; assay type: cell-based; details: Homo sapiens, 3 h incubation, read-out: Inhibitory activity on ERK phosphorylation (IC50) NCI H358-G12C
Lab note: report pIC50 as minus log10 of the concentration in molar units, number only.

* CC1(O)COCCN(c2nc(OCC34CCCN3C(c3cc(F)c(F)c(F)c3)CC4)nc3c(F)c(-c4ccc(F)c5sc(N)c(C#N)c45)c(Cl)cc23)C1 (single isomer, unassigned) [Example 12] | 8.51
* CC1(O)COCCN(c2nc(OCC34CCCN3C(c3cc(F)c(F)c(F)c3)CC4)nc3c(F)c(-c4cccc5sc(N)c(C#N)c45)c(Br)cc23)C1 (stereo not drawn) [Example 23] | 8.31

Would you kindly look at the next entry?
Problem: Request - read-out pIC50 | tested on KRAS G12C-mediated ERK phosphorylation | molecule CC1(O)COCCN(c2nc(OCC34CCCN3C(c3cc(F)c(F)c(F)c3)CC4)nc3c(F)c(-c4cccc5sc(N)c(C#N)c45)c(Cl)cc23)C1 (single isomer, unassigned) [Example 21]
Result: 8.69
